Test system: PPARg:RXRa (NR concentration 180 nM, RXRa partner concentration 90 nM)
experimentalDetails: PBM binding z-score (relative to random genomic background probes); higher = stronger binding; sequences stand for … in GC…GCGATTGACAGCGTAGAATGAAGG
Answer each item with its documented PBM binding z-score.
One number for each entry.

Provide the reported PBM binding z-score of each entry below, same order.
1. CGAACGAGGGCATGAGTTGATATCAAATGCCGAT
2. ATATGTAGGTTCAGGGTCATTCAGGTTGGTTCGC
3. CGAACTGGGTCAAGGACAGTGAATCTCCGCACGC
4. CATACAGGGTCAGCTAGGCCAGAGTAGGGACGGC
5. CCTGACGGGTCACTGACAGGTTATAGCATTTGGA
6. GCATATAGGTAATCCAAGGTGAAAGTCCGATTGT
7. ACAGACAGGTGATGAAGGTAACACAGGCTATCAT
8. TCTTGTAGATCAATAGAGGTTACGAAAGTGCGCT

Result:
1.58
7.3
6.95
3.58
2.56
1.15
1.05
0.4
